Answer each item with its documented Growth controlling degree (%) Green foxtail.
test system: green foxtail; experiment: Test Example 2: soil surface treatment, upland pot test; format: in vivo, Setaria viridis L.; conditions: active ingredient 250 g/ha, observed 20th to 28th day
Numbers only, in %.

[
  {
    "compound": "CC(C)C(c1cnccc1C(F)(F)F)N(C)S(=O)(=O)c1ccc(Br)cc1 (racemic)",
    "measurement-units": "%",
    "number": 95
  },
  {
    "compound": "CC(=Cc1ccccc1)C(=O)N(C)C(c1cnccc1C(F)(F)F)C(C)C (stereo not drawn)",
    "measurement-units": "%",
    "number": 100
  },
  {
    "compound": "CCCOC(=O)N(C)C(c1cnccc1C(F)(F)F)C(C)C (stereo not drawn)",
    "measurement-units": "%",
    "number": 98
  }
]

Please supply Growth controlling degree (%) Green foxtail for each of the following items, keeping them in order.
1. CC(C)=CC(=O)N(C)C(c1cnccc1C(F)(F)F)C(C)C (stereo not drawn)
2. CC(C)C(c1cnccc1C(F)(F)F)N(C)C(=O)C(F)(F)F (stereo not drawn)
3. CC(C)C(c1cnccc1C(F)(F)F)N(C)C(=O)C1CC1 (stereo not drawn)
4. CCCCC(=O)N(C)C(c1cnccc1C(F)(F)F)C(C)C (stereo not drawn)

Reply:
[100, 100, 100, 100]

Provide Growth controlling degree (%) Green foxtail for all items below, preserving their order.
1. CC(C)C(c1cnccc1C(F)(F)F)N(C)C(=O)Cc1ccc(Br)cc1F (racemic)
2. CC(C)C(c1cnccc1C(F)(F)F)N(C)C(=O)Cc1ccc(Cl)cc1 (stereo not drawn)

Reply:
100
98
